ASSAYED SYSTEM: CaBzz1-D1
PROTOCOL NOTES: SPOT peptide array binding signal intensity (averaged, normalized) (arbitrary units (background-subtracted, floor 0; scale differs between SH3 domains)); higher = stronger binding of the SH3 domain to the peptide
READOUT NAME: SPOT peptide array binding signal intensity

1) NIKVLLNPKLGKPVK
160
2) VNIPSPSSSPPPIPK
34
3) PSRRAPLQLPQLVNK
130
